# System: 786-0 renal
# testDetails: NCI-60 one-dose screen, 48 h
# conditionLabel: 10 µM unless noted
This is part of a sample that, as a whole, favours compounds with a hit. Of some 83,000 tested, about 20% had one in any assay. The source made the active and inactive calls. Rule for the calls: active = growth percent below 10; inactive = the rest.
Allowed answers: active, inactive

Example entries and their recorded answers appear below.
compound="COc1ccc2c(c1)C(C)Cc1c(Cl)nc(C)nc1N2C (centres undefined)" labelclass=inactive
compound="CCN(CC)CCCC(C)Nc1ccnc2cc(Cl)c(SCc3ccccc3)cc12 (centres undefined)" labelclass=active
compound=C=C(C)[C@@H]1CC[C@]2(C(=O)NCCNCCNC(=O)OC(C)(C)C)CC[C@]3(C)[C@H](CC[C@@H]4[C@@]5(C)CCC(=O)C(C)(C)[C@@H]5CC[C@]43C)[C@@H]12 labelclass=inactive
compound=O=C(N=c1n(-c2ccccc2)nc2n1CCN2C1=NCCN1C(=O)c1ccc(Cl)cc1)c1ccc(Cl)cc1 labelclass=inactive
compound=COCc1nc2ccccc2[nH]1 labelclass=inactive
compound=CNC(=O)c1cc(Oc2ccc3nc(NC(=O)c4ccc5ncccc5c4)sc3c2)ccn1 labelclass=inactive
compound=COc1cc(NN=C(c2ccc(O)cc2)c2ccc(O)cc2)c([N+](=O)[O-])cc1[N+](=O)[O-] labelclass=active
compound=COc1ccc(C(=O)CCC(=O)O)cc1 labelclass=inactive

Now consider a different compound.
INPUT: Returns: the outcome recorded for `NC(=O)c1c(NC(=O)COC(=O)Cc2ccccc2F)sc2c1CCC2` in this assay.
OUTPUT: inactive

====

# Tested on: EKVX NSCLC
# testDetails: NCI-60 one-dose screen, 48 h
# conditionLabel: 10 µM unless noted
This is part of a sample that, as a whole, favours compounds with a hit. Of some 83,000 tested, about 20% had one in any assay. Activity calls are given as the source filed them. Rule for the calls: active = growth percent below 10; inactive = the rest.
The reply should name one outcome from active, inactive

compound=CCc1ccc(C2=C/C(=C/c3ccccc3)C(=O)N2CCc2ccc(S(N)(=O)=O)cc2)cc1 labelclass=inactive
compound=CO[C@H]1CC[C@@]2(C)C(=CC[C@H]3[C@@H]4C[C@H](O)C[C@@]4(C)CC[C@@H]32)C1 labelclass=inactive
compound="CCOC(=O)C(C(C)=O)c1nc2sc3cc(Cl)c(Cl)cc3n2c(=O)c1C#N (stereo unspecified)" labelclass=inactive

INPUT: // return assay outcome for `CCCCCN(CCCCC)CCCCCCCCN1CCCc2ccccc21`
OUTPUT: inactive

INPUT: Hello, I am checking results. What call was entered for `COc1ccc(C(=O)c2nccc3cc(OC)c(OC)cc23)cc1OC` ?
OUTPUT: inactive

INPUT: Assay result, entry `COc1ccc(C2=C(c3cn(C)c4ccccc34)C(=O)OC2)cc1OC` — outcome?
OUTPUT: inactive

INPUT: Test call for this compound, please: `C[C@@H]1C[C@H]2C(=O)O[C@@H](C)[C@H](NC(=O)[C@H](Cc3cc(F)cc(F)c3)NC(=O)Nc3ccc(C4CC4)cc3F)C(=O)N3CCC[C@H]3C(=O)N3CCCC[C@H]3C(=O)N[C@@H](C)C(=O)N2C1`
OUTPUT: inactive

INPUT: Returns: the outcome recorded for `COc1cc2c(c(Br)c1N)-c1cc(Br)c(N)cc1C2=O` in this assay.
OUTPUT: inactive

====

# Tested on: ACHN renal
# testDetails: NCI-60 one-dose screen, 48 h (100 = growth as untreated, 0 = no growth, -100 = all killed)
# conditionLabel: 10 µM unless noted
About 83,000 compounds went through this panel and 20% of them were active in at least one assay; those are over-represented in the sample as a whole. The source made the active and inactive calls. The calls were made as follows: active = growth percent below 10; inactive = the rest.
Hi there, I'd appreciate the recorded growth for every entry that follows.

molecule="O=C1CC(c2ccc3c(c2)OCO3)Nc2ccccc21 (centres undefined)" quantitymeasured=growth result="46.9% (inactive)"

Hi! Can you tell me growth for each of these molecules?
1. COc1ccc2nc3cc(Cl)ccc3c(Nc3ccc(O)cc3)c2c1
2. CC[C@@H]1NC(=O)[C@@H]2CCCCN2C(=O)[C@@H]2CCCN2C(=O)[C@@H](NC(=O)[C@H](Cc2cc(F)cc(F)c2)NC(=O)Nc2ccc(C3CC3)cc2F)[C@H](C)OC(=O)[C@@H]2C[C@@H](C)CN2C1=O
3. Cc1cc(C)nc(SCC(=O)Nc2cccc(N=Cc3ccccc3O)c2)n1

OUTPUT:
["66.6% (inactive)", "12.1% (inactive)", "99.2% (inactive)"]

====

Kindly supply the reported growth values for the records listed here.
# Test system: SW-620 colon
# testDetails: NCI-60 one-dose screen, 48 h (100 = growth as untreated, 0 = no growth, -100 = all killed)
# conditionLabel: 10 µM unless noted
The panel holds about 83,000 compounds, 20% with a hit somewhere; the sample as a whole holds those more often. Activity calls are given as the source filed them. Rule for the calls: active = growth percent below 10; inactive = the rest.

molecule="CCCCC1COc2cccc3c2N1C=C/C3=C\\C(=O)n1ccc2ccccc21 (stereo not given)" testtarget="SW-620 colon" quantitymeasured=growth result="46.4% (inactive)"

For each listed entry, give its growth.
1. COc1ccc2nc3c(cc2c1)C(=O)CC(c1ccccc1)C3 (stereo not given)
2. COc1ccc(C(=O)c2nccc3cc(OC)c(OC)cc23)cc1OC
3. O=C1/C(=C\c2cn(CC(O)CN3CCCCC3)c3ccccc23)c2ccccc2N1c1c(Cl)cccc1Cl (stereo not given)
4. CCN(CC)CC(C)Nc1ccc(C)c2sc3ccccc3c(=O)c12 (stereo not given)
5. CC1Cc2c(Cl)ncnc2N(C)c2ccc(Cl)cc21 (stereo not given)
6. Oc1c(CNCCNCc2cc(Cl)cc(Cc3ccccc3)c2O)cc(Cl)cc1Cc1ccccc1
7. O=C(N=c1n(-c2ccccc2)nc2n1CCN2C1=NCCN1C(=O)c1ccc(Cl)cc1)c1ccc(Cl)cc1

OUTPUT:
1. 17.8% (inactive)
2. 96% (inactive)
3. -91.8% (active)
4. 55.8% (inactive)
5. 6.73% (active)
6. 29.6% (inactive)
7. 68.3% (inactive)

====

# Test system: COLO 205 colon
# testDetails: NCI-60 one-dose screen, 48 h
# conditionLabel: 10 µM unless noted
About 83,000 compounds went through this panel and 20% of them were active in at least one assay; those are over-represented in the sample as a whole. Calls of active or inactive are those of the source. The calls were made as follows: active = growth percent below 10; inactive = the rest.
Respond only with the outcome that fits, drawn from true (1) (active), false (0) (inactive)

Past entries and their recorded results:
compound=COc1ccc(C(C(=O)O)c2ccc(OC)cc2)cc1 labelclass="false (0)"
compound=O=C(Nc1ccc(Oc2ccc(F)cc2)c(Cl)c1)c1cccnn1 labelclass="false (0)"
compound=COc1ncc(-c2ccc3nccc(C#CCCCCC(=O)O)c3c2)cc1NS(=O)(=O)c1ccc(F)cc1F labelclass="false (0)"

INPUT: What classification did CCN(CC)c1ccc2cc(C(Nc3ccc(Br)c(C(F)(F)F)c3)c3nnnn3C(C)(C)C)c(=O)oc2c1 (stereo not drawn) end up with in this test?
OUTPUT: false (0)

INPUT: Record lookup: outcome of this test for `CCOc1ccccc1/C=N\Nc1ccc(S(=O)(=O)c2ccc(N/N=C/c3ccccc3OCC)cc2)cc1` ?
OUTPUT: false (0)

INPUT: Write down the call the test reported for this compound. Item: `CC1=CC[C@@H]2C(C)(C)C(=O)CC[C@@]2(C)[C@@H]1COc1ccc2ccc(=O)oc2c1`
OUTPUT: false (0)

====

# System: MCF7 breast
# testDetails: NCI-60 one-dose screen, 48 h (100 = growth as untreated, 0 = no growth, -100 = all killed)
# conditionLabel: 10 µM unless noted
This is part of a sample that, as a whole, favours compounds with a hit. Of some 83,000 tested, about 20% had one in any assay.
Cut-off 40% on growth: below means 1.0, at or above means 0.0.

Some entries whose results are on file:
molecule=Cc1ccc(Oc2c(/C=N/NC(=O)Cn3c(=O)sc4ccccc43)c(C)nn2-c2ccccc2)cc1 labelclass=1.0
molecule=O=C(Nc1cc(F)cc2cccnc12)c1cnc(N2CCNCC2)cn1 labelclass=1.0
molecule=Clc1ccc(N2CCN(CCCN3CCN(c4cccc(Cl)c4)CC3)CC2)cc1 labelclass=0.0
molecule=CC(=O)Nc1ccc(C=Nc2ccc3ccccc3c2)cc1 labelclass=0.0
molecule="O=c1[nH]cnc2c1ccn2C1OC(CO)C(O)C1O (stereo unspecified)" labelclass=1.0

INPUT: is_below(growth, 40%) for `Cc1cc(N2CCCCCC2)nc(N2CCN(CC(=O)Nc3ccc4c(ccn4Cc4ccccc4)c3)CC2)n1` ?
OUTPUT: 1.0

INPUT: Input `CC(C)CCSc1nc(N)nc2nc[nH]c12` ; condition: growth strictly below 40%. Does it hold?
OUTPUT: 0.0

INPUT: Bench note: check whether `CCOc1cc(/C=N\NC(=O)N/N=C/c2ccc(O)c(OCC)c2)ccc1O` shows growth below 40%
OUTPUT: 1.0

====

Please go through the items and note down their growth.
# System: SK-MEL-2 melanoma
# testDetails: NCI-60 one-dose screen, 48 h (100 = growth as untreated, 0 = no growth, -100 = all killed)
# conditionLabel: 10 µM unless noted
Compounds without any hit were thinned out: in the full panel of roughly 83,000, 20% have a hit.
One number for each entry, in %.

compound=O=S(=O)(NCCCNc1nccc(-c2c(-c3cccc(F)c3)nc3occn23)n1)c1cccc2ccccc12 testtarget="SK-MEL-2 melanoma" numericvalue=47.3
compound=O=C(Nc1cccc(F)c1)c1cc(=O)[nH]c2cc(Br)ccc12 testtarget="SK-MEL-2 melanoma" numericvalue=41.2
compound=CC(C)C1=NOC(=O)C1=Cc1cn(-c2ccccc2)nc1-c1ccc(Cl)cc1 testtarget="SK-MEL-2 melanoma" numericvalue=85.6

Please give growth, item by item, for the list that follows.
1. N#Cc1ccc(-c2ccc(COc3ccc(CC4SC(=O)NC4=O)cc3)cc2)cc1 (stereo not given)
2. COc1ccc2c(c1)C(C)Cc1c(Cl)ncnc1N2C (stereo not given)
3. CCCCNC(=O)NS(=O)(=O)Cc1ccccc1

OUTPUT:
[56.9, -29.4, 119]

Okay, here is my list. What is growth for each of these?
1. CCCCCCCCCCCCCCCCCCNC(=S)N/N=C/c1ccc(OC)c(OC)c1
2. CC1Cc2c(ncnc2-n2cnc3ccccc32)N(C)c2ccccc21 (stereo not given)
3. COc1ccc2c3ccnc(C(F)(F)F)c3n(CCCCN)c2c1
4. COc1cc(C)cc2oc3oc(=O)c(C(=O)c4cc5cc(Br)ccc5o4)cc3c(=O)c12

OUTPUT:
1. 111
2. -6.66
3. 55.3
4. 114
